recorded-metric: melting point

Input line: Look up melting point: C=C(CN1CCN(c2ccccc2OC)CC1)c1ccc(C(=O)Nc2ccccc2N)cc1
Output line: 115 to 116 °C

Input line: Which melting point reading was recorded for the compound C=C(CN1CCOCC1)c1ccc(C(=O)Nc2ccccc2N)cc1 ?
Output line: 163 to 164 °C

Input line: What value of melting point has been reported for the following compound? C=C(CN1CCOCC1)c1ccc(CC(=O)Nc2ccccc2N)cc1
Output line: 129 °C

Input line: Item under review: C=C(CNCc1ccccc1)c1ccc(C(=O)Nc2ccccc2N)cc1 . Reported melting point?
Output line: 89 to 91 °C

Input line: If you can, please state the reported melting point value of C=C(CN1CCOCC1)c1ccc(CCCC(=O)Nc2ccccc2N)cc1 .
Output line: 79 to 81 °C

Input line: Any idea what melting point was measured for CC(C)=C(CN1CCc2ccccc2C1)c1ccc(C(=O)Nc2ccccc2N)cc1 ?
Output line: 120 °C

Input line: Dear colleague, I am looking for the recorded melting point of the following compound: C=C(CN(C)Cc1ccccc1)c1ccc(C(=O)Nc2ccccc2N)cc1
Output line: 110 to 111 °C
